Documented koff across a set of binders
target: human mesothelin (MSLN) (human) (UniProt Q13421); experiment: BLI (Octet), bsAb in 1+1 Fab-scFv-Fc format
Recorded metric: koff

binder="XENP32566 (bispecific antibody, part only; not given: anti-CD3 scFv-Fc arm, constant regions, V domains shown, not shown: another chain or arm of the molecule; a dimerising Fc or GST; small tags and cut ends) VH: QVQLVQSGAEVKKPGASVKVSCKASGYTFTSYWMHWVRQAPGQGLEWMGMIHPNSDNTIYYEKFQGRVTMTVDKSISTAYMELSRLRSDDTAVYYCAIIITPVVPKFDYWGQGTLVTVSS VL: DIVMTQSPDSLAVSLGERATINCKASHDVGTSVAWYQQKPGQSPKLLIYWASTRHSGVPDRFTGSGSGTDFTLTISSLQAEDVAVYFCQQYSSYPLTFGAGTKLEIK" result="0.000113 s⁻¹"
binder="XENP31701 (bispecific antibody, part only; not given: anti-CD3 scFv-Fc arm, constant regions, V domains shown, not shown: another chain or arm of the molecule; a dimerising Fc or GST; small tags and cut ends) VH: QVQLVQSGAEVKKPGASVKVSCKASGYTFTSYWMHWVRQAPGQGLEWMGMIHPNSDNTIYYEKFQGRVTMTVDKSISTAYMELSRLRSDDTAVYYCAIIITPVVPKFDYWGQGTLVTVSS VL: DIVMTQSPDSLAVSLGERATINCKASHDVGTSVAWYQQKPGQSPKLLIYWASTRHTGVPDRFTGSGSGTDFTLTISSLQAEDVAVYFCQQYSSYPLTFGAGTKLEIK" result="4.69e-05 s⁻¹"
